TARGET: NARF; also: reference of the scale not given here
ASSAY PROTOCOL: pooled miR-30 sensor sort-seq; sequence = guide strand
PARTICULARS: shRNA
ATTRIBUTE MEASURED: sensor-assay potency score (higher = more potent)

{"columns": ["CHAIN SEQUENCE", "TARGET", "RESULT VALUE"],
 "data": [
  ["TTATTTGAGCAATTTCACCTGA", "NARF", 0.612],
  ["ATCCTCGTTGAACAGCTCCTTG", "NARF", -0.97],
  ["TTGAACAGCTCCTTGGCCGCAT", "NARF", 0.2],
  ["TTGTTTTCTTACTACATTCCTT", "NARF", -0.477],
  ["TGGTGCAATCTTGTCTCGCTGT", "NARF", -0.584]
]}
